Reference source for all entries: patent US20140113877A1

assayed_system: human PDE5 (Homo sapiens)
Construct: from tissue; host or cells: human platelets from fresh donor blood (platelet lysate)
method: Inhibition of PDE5 activity (SPA, [3H]cGMP, platelet lysate)
Format: biochemical
experimental_setup: 0.5 μM cGMP, binned: below 8 / between 8 and 9, read-out: PDE5 inhibitory values measured as −logIC50 (converted)
Entries and their IC50

compound CCOc1cc2c(cc1OC)C(c1ccc(C(=O)N3CCC(n4c(=O)c5sc(-c6ccccc6)cc5n(Cc5ccccc5)c4=O)CC3)cc1)=N[C@@H]1CCSC[C@H]21 , IC50 observed: 1 to 10 nM

compound CCOc1cc2c(cc1OC)C(c1ccc(C(=O)N3CCC(n4c(=O)c5sc(-c6ccc(F)cc6C)cc5n(Cc5ccc(OC)c(F)c5)c4=O)CC3)cc1)=N[C@@H]1CCSC[C@H]21 , IC50 observed: 1 to 10 nM

compound CCOc1cc2c(cc1OC)C(c1ccc(C(=O)N3CCC(n4c(=O)c5sc(-c6ccc(F)cc6OC)cc5n(Cc5ccc(OC)c(F)c5F)c4=O)CC3)cc1)=N[C@@H]1CCSC[C@H]21 , IC50 observed: > 10 nM

More entries:
compound CCOc1cc2c(cc1OC)C(c1ccc(C(=O)N3CCC(n4c(=O)c5sc(-c6ccc(F)cc6OC)cc5n(Cc5ccc(OC)c(F)c5)c4=O)CC3)cc1)=N[C@@H]1CCSC[C@H]21 , IC50 observed: 1 to 10 nM

compound CCOc1cc2c(cc1OC)C(c1cccc(C(=O)N3CCC(n4c(=O)c5sc(-c6ccc7c(c6)OCO7)cc5n(Cc5ccc(OC)c(F)c5)c4=O)CC3)c1)=N[C@@H]1CCSC[C@H]21 , IC50 observed: 1 to 10 nM
